Method: BSK_BE3C_SRB: Viability Assessment in the BioMAP Diversity Plus: BE3C Assay (AID 2283028);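 further: measured 24 h after chemical dosing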;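 on AC50: fitted both ways so AC50 may mark signal gain or loss versus DMSO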
Applied conditions: primary human bronchial epithelial cells
The source made the active and inactive calls. How the source made its calls: active means hit-call score of the fitted dose curve at least 0.9, where 1 is the maximum; inactive means score below 0.9.
Test readout: AC50

Recorded AC50, per entry:
>  <Structure smiles>
C[C@@H]1C[C@H]2[C@@H]3CCC4=CC(=O)C=C[C@]4(C)[C@@]3(F)[C@@H](O)C[C@]2(C)[C@@]1(O)C(=O)COP(=O)(O)O

>  <AC50>
inactive

$$$$
>  <Structure smiles>
COc1ccc([N+](=O)[O-])cc1N

>  <AC50>
inactive

$$$$
>  <Structure smiles>
FC(F)(I)C(F)(F)C(F)(F)C(F)(F)C(F)(F)C(F)(F)I

>  <AC50>
23.6 µM (active) [middle of 5 runs]

$$$$
>  <Structure smiles>
COC(=O)CCCCC(=O)OC

>  <AC50>
inactive

$$$$

Bench note: what AC50 did CC(=O)NC1(c2cccc(F)c2)CCN(CC[C@@]2(c3ccc(Cl)c(Cl)c3)CN(c3ccccc3)C(=O)CO2)CC1 show?
inactive

----------
Read-out: CYP4A11 (gene 1579)
Method: LTEA_HepaRG_CYP4A11: Life Technologies and Expression Analysis (LTEA) Assay for CYP4A11 using HepaRG (AID 2283486)
Applied conditions: mRNA level, 48 h; actives raise or lower the signal
Activity calls are given as the source filed them. Rule for the calls: active = hit-call score of the fitted dose curve at least 0.9, where 1 is the maximum; inactive = score below 0.9.
// classify into true (active), false (inactive)

Some solved entries appear below for comparison.
>  <Compound>
CCCCCCC(=O)O

>  <Cat>
false

$$$$
>  <Compound>
CC(C)(C)c1cc(C(C)(C)C)c(O)c(C(C)(C)C)c1

>  <Cat>
false

$$$$

Moving on to the next compound.
Call for entry OCCC(F)(F)C(F)(F)C(F)(F)C(F)(F)C(F)(F)C(F)(F)C(F)(F)C(F)(F)F :
false

----------
Read-out: Macrophage colony-stimulating factor (MCSF), CSF1 (gene 1435)
Method: BSK_hDFCGF_MCSF: BioMAP Diversity Plus: hDFCGF Assay for Macrophage colony-stimulating factor (MCSF) Biomarker Activity (AID 2283060)
Applied conditions: primary human foreskin fibroblasts; actives raise or lower the signal
The source made the active and inactive calls. Rule for the calls: active = hit-call score of the fitted dose curve at least 0.9, where 1 is the maximum; inactive = score below 0.9.
Test readout: AC50

Reference set (5 entries):
>  <Molecule>
Oc1cccc(O)c1

>  <AC50>
inactive

$$$$
>  <Molecule>
CN(C)C=O

>  <AC50>
inactive

$$$$
>  <Molecule>
N#C[C@@H]1CC(F)(F)CN1C(=O)CNC1CC2CCC(C1)N2c1ncccn1 (stereo partly drawn)

>  <AC50>
inactive

$$$$
>  <Molecule>
O=C(O)c1ccccc1C(c1ccc(O)cc1)c1ccc(O)cc1

>  <AC50>
inactive

$$$$
>  <Molecule>
CCCOc1sc(C(=O)N2CCC(c3cc(CN)ccc3F)CC2)c(C)c1Br

>  <AC50>
6.92 µM (active)

$$$$

// query AC50 value for entry CCc1nn(C2CCCCC2)c2cc(C3(C#N)CCC(C(=O)O)CC3)ccc12 (stereo not drawn)
5.16 µM (active)

So what does the record say about AC50 for NC(=O)N(O)[C@@H]1C=C[C@H](Oc2cccc(Oc3ccc(F)cc3)c2)C1 ?
3.97 µM (active)

Fill blank: measured AC50 of the molecule O=C(O)Cc1cc(I)c(Oc2cc(I)c(O)c(I)c2)c(I)c1 is ____.
14 µM (active)
